These data points were gathered from patent US20070293544A1.

# TESTED TARGET: UniProtKB Q02750
# Sequence (Q02750 whole entry): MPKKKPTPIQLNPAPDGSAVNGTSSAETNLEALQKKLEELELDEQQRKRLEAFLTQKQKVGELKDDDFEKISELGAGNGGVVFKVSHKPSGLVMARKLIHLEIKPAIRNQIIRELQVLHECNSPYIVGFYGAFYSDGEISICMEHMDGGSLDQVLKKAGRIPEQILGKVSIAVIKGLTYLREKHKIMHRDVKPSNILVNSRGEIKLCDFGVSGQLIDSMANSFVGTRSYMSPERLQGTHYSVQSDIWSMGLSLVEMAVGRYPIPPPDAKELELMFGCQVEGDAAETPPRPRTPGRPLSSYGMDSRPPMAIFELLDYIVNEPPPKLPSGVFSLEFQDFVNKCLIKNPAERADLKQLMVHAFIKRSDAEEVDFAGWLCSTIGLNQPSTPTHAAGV
MEASURED QUANTITY: IC50

Q: Look up IC50 for this compound: Cc1cc(I)ccc1Nc1cc(=O)n(C)cc1C(=O)O
A: ≤ 1 µM

====

# ASSAY METHOD TEXT: Microsomal stability assay, rat liver microsomes
# Format: in vitro ADME
# DETAILS: male, Sprague Dawley, pooled rat liver microsomes, pH 7.4; 3 μM compound, 0.5 mg/ml rat liver microsomes, 37° C., 2 mM NADPH; read-out: RLM t½
Consider the following compounds and their measured half-life at 3 μM readings.

Illustrative cases are given below, each with its answer.
Cc1cc(I)ccc1Nc1cc(=O)n(C)cc1C(=O)NOC[C@@H](O)CO [Compound 4c] : > 2 h
Cc1cc(Br)ccc1Nc1cc(=O)n(C)cc1C(=O)NOC[C@@H](O)CO [Compound 4b] : > 2 h

Now consider the entry below.
Q: Look up half-life at 3 μM for this compound: C=CCNc1nnc(-c2cn(C)c(=O)cc2Nc2ccc(Br)cc2C)o1 [Compound 7a]
A: 0.517 to 2 h
